- TARGET: E1-E2-DNA complex (Human papillomavirus 11)
- TEST NAME: E2-dependent E1 DNA binding assay (E1-E2 DNA assay)
- CONDITION CONTEXT: E1-E2 DNA assay of Example 11, HPV-11
What IC50 was measured for each of the following?

Would you mind telling me what IC50 value was observed for O=C(NCCc1ccccc1)C1C(c2ccc(Br)c(Br)c2)OC2(C(=O)c3ccccc3C2=O)C1C(=O)O (stereo not shown) ?
< 0.5 µM

Would you mind telling me what IC50 value was observed for O=C(NCCc1ccccc1)C1C(c2ccc(Cl)c(Cl)c2)OC2(C(=O)c3ccccc3C2=O)C1C(=O)O (racemic) ?
< 0.5 µM

Would you mind telling me what IC50 value was observed for Cc1ccc(NC(=O)C2C(c3ccc(Cl)cc3)OC3(C(=O)c4ccccc4C3=O)C2C(=O)O)cc1 (stereo not shown) ?
5 to 50 µM

Would you mind telling me what IC50 value was observed for Cc1cccc(N2C(=O)C3C(c4ccc(Cl)cc4)OC4(C(=O)c5ccccc5C4=O)C3C2=O)c1 (stereo not shown) ?
5 to 50 µM

Would you mind telling me what IC50 value was observed for O=C(Nc1ccc2c(c1)OCO2)C1C(c2cccc(C(F)(F)F)c2)OC2(C(=O)c3ccccc3C2=O)C1C(=O)O (stereo not shown) ?
0.5 to 5 µM

Would you mind telling me what IC50 value was observed for CC(=O)c1ccc(NC(=O)C2C(C=Cc3ccccc3C)OC3(C(=O)c4ccccc4C3=O)C2C(=O)O)cc1 (stereo not shown) ?
5 to 50 µM

Would you mind telling me what IC50 value was observed for O=C(Nc1ccccc1Br)C1C(c2cc(Cl)cc(Cl)c2)OC2(C(=O)c3ccccc3C2=O)C1C(=O)O (stereo not shown) ?
< 0.5 µM

====

- TARGET: E1-E2-DNA complex (Human papillomavirus 11, UniProt P04015)
- Sequence (P04015 whole entry, one chain of several): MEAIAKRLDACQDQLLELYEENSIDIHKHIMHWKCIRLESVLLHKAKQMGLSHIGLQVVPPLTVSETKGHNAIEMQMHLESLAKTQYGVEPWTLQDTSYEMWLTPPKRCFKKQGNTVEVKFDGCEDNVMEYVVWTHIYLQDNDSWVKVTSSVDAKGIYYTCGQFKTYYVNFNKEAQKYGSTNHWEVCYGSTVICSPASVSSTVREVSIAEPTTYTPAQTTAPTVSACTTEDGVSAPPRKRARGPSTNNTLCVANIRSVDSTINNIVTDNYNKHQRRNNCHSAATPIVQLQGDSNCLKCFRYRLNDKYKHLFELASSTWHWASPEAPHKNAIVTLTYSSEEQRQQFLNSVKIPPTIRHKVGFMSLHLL
- TEST NAME: E2-dependent E1 DNA binding assay (E1-E2 DNA assay)
- CONDITION CONTEXT: E1-E2 DNA assay of Example 11, HPV-11
pIC50: −log10 of the molar value.
ENDPOINT: pIC50

Would you mind telling me what pIC50 value was observed for CC(=O)c1ccc(NC(=O)C2C(c3ccc4ccccc4c3)OC3(C(=O)c4ccccc4C3=O)C2C(=O)O)cc1 (stereo not shown) ?
5.30 to 6.30

Would you mind telling me what pIC50 value was observed for O=C1C2C(c3cccc(Cl)c3)OC3(C(=O)c4ccccc4C3=O)C2C(=O)N1c1ccc2c(c1)OCO2 (stereo not shown) ?
5.30 to 6.30

Would you mind telling me what pIC50 value was observed for CC(=O)Nc1ccc(NC(=O)C2C(c3ccc(Cl)c(Cl)c3)OC3(C(=O)c4ccccc4C3=O)C2C(=O)O)cc1 (stereo not shown) [Compound 1108] ?
5.30 to 6.30

Would you mind telling me what pIC50 value was observed for COc1ccc(N2C(=O)C3C(c4ccc(Cl)cc4)OC4(C(=O)c5ccccc5C4=O)C3C2=O)cc1OC (stereo not shown) ?
4.30 to 5.30

Would you mind telling me what pIC50 value was observed for O=C(NC1CCCCC1)C1C(c2ccc(Cl)c(Cl)c2)OC2(C(=O)c3ccccc3C2=O)C1C(=O)O (stereo not shown) ?
5.30 to 6.30

Would you mind telling me what pIC50 value was observed for Cc1ccc2c(c1)C1(O)OC(=O)C3C(C(=O)NCCc4ccccc4Cl)C(c4ccc(Br)c(Br)c4)OC31C2=O (single isomer, unassigned) [Compound B1007] ?
> 6.30

Would you mind telling me what pIC50 value was observed for Cc1ccc(N2C(=O)C3C(c4ccc(Cl)cc4)OC4(C(=O)c5ccccc5C4=O)C3C2=O)cc1 (stereo not shown) ?
4.30 to 5.30

Would you mind telling me what pIC50 value was observed for O=C(c1ccccc1)c1cccc(NC(=O)C2C(c3ccc(Br)c(Br)c3)OC3(C(=O)c4ccccc4C3=O)C2C(=O)O)c1 (stereo not shown) ?
5.30 to 6.30

Would you mind telling me what pIC50 value was observed for O=C(Nc1cc2c(cc1[N+](=O)[O-])OCO2)C1C(c2ccc(Cl)c(Cl)c2)OC2(C(=O)c3ccccc3C2=O)C1C(=O)O (stereo not shown) ?
5.30 to 6.30

Would you mind telling me what pIC50 value was observed for CC(C)(C)OC(=O)Nc1ccc(N2C(=O)C3C(c4ccc(Cl)c(Cl)c4)OC4(C(=O)c5ccccc5C4=O)C3C2=O)cc1 (stereo not shown) ?
4.30 to 5.30

Would you mind telling me what pIC50 value was observed for CC(=O)c1ccc(NC(=O)C2C(c3ccc(Cl)c(Cl)c3)OC34C(=O)c5sc(C)cc5C3(O)OC(=O)C24)cc1 (stereo not shown) ?
4.30 to 5.30

Would you mind telling me what pIC50 value was observed for O=C(Nc1ccc(N2CCOCC2)cc1)C1C(c2ccc(Cl)c(Cl)c2)OC2(C(=O)c3ccccc3C2=O)C1C(=O)O (stereo not shown) ?
> 6.30

Would you mind telling me what pIC50 value was observed for CC(NC(=O)C1C(c2ccc(Cl)c(Cl)c2)OC23C(=O)c4ccccc4C2(O)OC(=O)C13)c1ccccc1 (racemic) [Compound 3007] ?
4.30 to 5.30

====

- TARGET: E1-E2-DNA complex (Human papillomavirus 11)
- TEST NAME: E2-dependent E1 DNA binding assay (E1-E2 DNA assay)
- CONDITION CONTEXT: E1-E2 DNA assay of Example 11, HPV-11
ENDPOINT: IC50

Would you mind telling me what IC50 value was observed for O=C(Nc1ccc(Cl)cc1)C1C(c2ccc(Br)c(Br)c2)OC2(C(=O)c3ccccc3C2=O)C1C(=O)O (stereo not drawn) ?
< 0.5 µM

Would you mind telling me what IC50 value was observed for Cc1cccc(NC(=O)C2C(c3ccc(Cl)cc3)OC3(C(=O)c4ccccc4C3=O)C2C(=O)O)c1 (stereo not drawn) ?
5 to 50 µM

Would you mind telling me what IC50 value was observed for CC(=O)c1ccc(NC(=O)C2C(c3ccc(Cl)cc3)OC3(C(=O)c4ccccc4C3=O)C2C(=O)O)cc1 (stereo not drawn) ?
5 to 50 µM

Would you mind telling me what IC50 value was observed for Cc1ccc2nc(-c3ccc(NC(=O)C4C(c5ccc(Cl)c(Cl)c5)OC5(C(=O)c6ccccc6C5=O)C4C(=O)O)cc3)sc2c1 (stereo not drawn) ?
< 0.5 µM

Would you mind telling me what IC50 value was observed for O=C(Nc1ccc(Cl)cc1)C1C(c2ccc(Cl)c(Cl)c2)OC2(C(=O)c3ccccc3C2=O)C1C(=O)O (stereo not drawn) [Compound 1063] ?
0.5 to 5 µM

Would you mind telling me what IC50 value was observed for O=C(NCc1ccc2c(c1)OCO2)C1C(c2ccc(Cl)c(Cl)c2)OC2(C(=O)c3ccccc3C2=O)C1C(=O)O (stereo not drawn) ?
5 to 50 µM

Would you mind telling me what IC50 value was observed for Cc1ccc(C2OC3(C(=O)c4ccccc4C3=O)C(C(=O)O)C2C(=O)Nc2ccc3c(c2)OCO3)cc1C (stereo not drawn) ?
0.5 to 5 µM

Would you mind telling me what IC50 value was observed for Cc1cc2c(cc1F)C(=O)C1(OC(c3ccc(Br)c(Br)c3)C(C(=O)Nc3ccc(N4CCOCC4)cc3)C1C(=O)O)C2=O (single isomer, unassigned) [Compound A1015] ?
< 0.5 µM

Would you mind telling me what IC50 value was observed for CC(=O)c1ccc(N2C(=O)C3C(c4ccc(Cl)c(Cl)c4)OC4(C(=O)c5ccccc5C4=O)C3C2=O)cc1 (racemic) ?
0.5 to 5 µM

Would you mind telling me what IC50 value was observed for O=C(Nc1ccc(C2CCCCC2)cc1)C1C(c2ccc(Cl)c(Cl)c2)OC2(C(=O)c3ccccc3C2=O)C1C(=O)O (stereo not drawn) ?
< 0.5 µM

Would you mind telling me what IC50 value was observed for O=C(NN1CCOCC1)C1C(c2ccc(F)c(Cl)c2)OC2(C(=O)c3ccccc3C2=O)C1C(=O)O (stereo not drawn) ?
5 to 50 µM

Would you mind telling me what IC50 value was observed for O=C(Nc1ccc2c(c1)OCO2)C1C(c2ccc(Cl)c(Cl)c2)OC2(C(=O)c3ccccc3C2=O)C1C(=O)O (stereo not drawn) [Compound 1002] ?
< 0.5 µM

Would you mind telling me what IC50 value was observed for O=C(Nc1ccc(-c2csnn2)cc1)C1C(c2ccc(F)c(F)c2)OC2(C(=O)c3ccccc3C2=O)C1C(=O)O (stereo not drawn) ?
0.5 to 5 µM

Would you mind telling me what IC50 value was observed for CC(C)(C)c1ccc(NC(=O)C2C(c3ccc(Cl)c(Cl)c3)OC3(C(=O)c4ccccc4C3=O)C2C(=O)O)cc1 (stereo not drawn) [Compound 1060] ?
0.5 to 5 µM

Would you mind telling me what IC50 value was observed for O=C(Nc1ccc2c(c1)OCO2)C1C(c2ccc3ccccc3c2)OC2(C(=O)c3ccccc3C2=O)C1C(=O)O (stereo not drawn) ?
0.5 to 5 µM

====

What IC50 was measured for each of the following?
- TARGET: E1-E2-DNA complex (Human papillomavirus 11, UniProt P04015)
- TEST NAME: E2-dependent E1 DNA binding assay (E1-E2 DNA assay)
- CONDITION CONTEXT: E1-E2 DNA assay of Example 11, HPV-11

Missing value: IC50, E1-E2-DNA complex (Human papillomavirus 11, UniProt P04015), entry O=C1C2C(c3ccc(Br)c(Br)c3)OC3(C(=O)c4ccccc4C3=O)C2C(=O)N1c1ccc(N2CCOCC2)cc1 (stereo not drawn) . Fill in?
< 0.5 µM

Missing value: IC50, E1-E2-DNA complex (Human papillomavirus 11, UniProt P04015), entry [N-]=[N+]=Nc1c(F)c(F)c(CNC(=O)C2C(c3ccc(Cl)c(Cl)c3)OC34C(=O)c5ccccc5C3(O)OC(=O)C24)c(F)c1F (racemic) . Fill in?
5 to 50 µM

Missing value: IC50, E1-E2-DNA complex (Human papillomavirus 11, UniProt P04015), entry O=C(NC1CC1c1ccccc1)C1C(c2ccc(Cl)c(Cl)c2)OC2(C(=O)c3ccccc3C2=O)C1C(=O)O (stereo not drawn) [Compound 1058] . Fill in?
0.5 to 5 µM

Missing value: IC50, E1-E2-DNA complex (Human papillomavirus 11, UniProt P04015), entry CSc1ccc(NC(=O)C2C(c3ccc(Cl)c(Cl)c3)OC3(C(=O)c4ccccc4C3=O)C2C(=O)O)cc1 (stereo not drawn) . Fill in?
0.5 to 5 µM

Missing value: IC50, E1-E2-DNA complex (Human papillomavirus 11, UniProt P04015), entry O=C(Nc1ccc2c(c1)OCO2)C1C(c2ccc(F)c(Cl)c2)OC2(C(=O)c3ccccc3C2=O)C1C(=O)O (stereo not drawn) . Fill in?
0.5 to 5 µM

Missing value: IC50, E1-E2-DNA complex (Human papillomavirus 11, UniProt P04015), entry O=C(Nc1ccc2c(c1)OCO2)C1C(c2ccc(Cl)cc2)OC2(C(=O)c3cccc(F)c3C2=O)C1C(=O)O (stereo not drawn) . Fill in?
5 to 50 µM

Missing value: IC50, E1-E2-DNA complex (Human papillomavirus 11, UniProt P04015), entry Cc1ccc(NC(=O)C2C(c3ccc(Cl)c(Cl)c3)OC3(C(=O)c4ccccc4C3=O)C2C(=O)O)cc1 (stereo not drawn) . Fill in?
0.5 to 5 µM

Missing value: IC50, E1-E2-DNA complex (Human papillomavirus 11, UniProt P04015), entry CC(=O)c1ccc(NC(=O)C2C(C=Cc3cccc(Br)c3)OC3(C(=O)c4ccccc4C3=O)C2C(=O)O)cc1 (stereo not drawn) . Fill in?
5 to 50 µM

Missing value: IC50, E1-E2-DNA complex (Human papillomavirus 11, UniProt P04015), entry O=C(Nc1ccc(N2CCOCC2)cc1)C1C(c2ccc(Br)c(Br)c2)OC2(C(=O)c3ccc(F)cc3C2=O)C1C(=O)O (stereo not drawn) [Compound 1144] . Fill in?
< 0.5 µM

Missing value: IC50, E1-E2-DNA complex (Human papillomavirus 11, UniProt P04015), entry O=C(Nc1ccc2c(c1)OCO2)C1C(c2ccc(Cl)c(Cl)c2)OC2(C(=O)c3ccccc3C2=O)C1C(=O)O (racemic) [Compound 5001] . Fill in?
0.5 to 5 µM

Missing value: IC50, E1-E2-DNA complex (Human papillomavirus 11, UniProt P04015), entry COc1cccc(C2OC3(C(=O)c4ccccc4C3=O)C(C(=O)O)C2C(=O)Nc2ccc3c(c2)OCO3)c1 (racemic) . Fill in?
5 to 50 µM

Missing value: IC50, E1-E2-DNA complex (Human papillomavirus 11, UniProt P04015), entry O=C(Nc1ccc2c(c1)OCO2)C1C(c2ccc(Cl)cc2)OC23C(=O)c4ccccc4C2(O)OC(=O)C13 (racemic) . Fill in?
5 to 50 µM
